These entries and their values trace back to PubChem BioAssay AID841.

- PROTOCOL SUMMARY: blockers of measles virus-induced cell death – single point, MLSMR library, absorbance, measles RdRp inhibitor project, primary screen (AID 841)
- MEASUREMENT CONTEXT: Measles virus-infected cells, CPE protection, at 4 µM, active compounds read high
Hit rate of the full screen: of about 140,000 compounds, about 2,100 (1.5%) were called active. The list comes from a sample in which actives are over-represented; it also holds close analogues and randomly drawn compounds.
Listing: protection (pct of control) of selected compounds
Quick reminder: number only, in %, skip the unit.

Study these solved cases before continuing.
# MOL SMILES, protection (pct of control) (%)
rows = [
    ("COc1cc2c(cc1OC)C(=O)NCC(C)(C)O2", 6.34),
    ("CCc1ccc(-c2cc(C(=O)NN3CCN(C)CC3)c3ccccc3n2)cc1", 5.27),
    ("CCOCC(=O)Nc1sc2c(c1C(=O)OCC)CCCC2", 7.18),
]

Record `COc1ccc(OC)c(-n2nnnc2SCC(=O)Nc2cc(C)ccc2OC)c1` . Reported protection (pct of control): 17.2

Record `Cc1ccc2[nH]c(C(=O)O)c(NC(=O)c3ccccc3[N+](=O)[O-])c2c1` . Reported protection (pct of control): 14.1

Record `N#CC1(NC(=O)COc2ccc3oc4ccccc4c3c2)CCCCC1` . Reported protection (pct of control): 21.4

Record `Cc1ccc(-c2cc(N)on2)cc1` . Reported protection (pct of control): 16.5

---

- PROTOCOL SUMMARY: blockers of measles virus-induced cell death – single point, MLSMR library, absorbance, measles RdRp inhibitor project, primary screen (AID 841)
- MEASUREMENT CONTEXT: Measles virus-infected cells, CPE protection, at 4 µM, active compounds read high
Hit rate of the full screen: of about 140,000 compounds, about 2,100 (1.5%) were called active. Shown is part of a subset that was picked to be rich in actives.
Listing: protection (pct of control) of selected compounds
Quick reminder: number only, in %, skip the unit.

Record `CCCSc1nc2c(c(=O)n(C)c(=O)n2C)n1Cc1ccc(C)cc1` . Reported protection (pct of control): 16.6

Record CC(Oc1ccccc1F)C(=O)NN (stereo not drawn) . Reported protection (pct of control): 17.6

Record `CCOc1ccc(Nc2nc(Cc3nnc(SCC(=O)NC4CCCC4)n3C)cs2)cc1` . Reported protection (pct of control): 4.14

Record `CCOc1ccc(S(=O)(=O)N2CCCCCC2)c2ccccc12` . Reported protection (pct of control): 3.16

Record `CCN=C1S/C(=C\c2cc(Br)ccc2OCC(=O)OCC)C(=O)N1CC` . Reported protection (pct of control): 4.59

Record `CC(=O)Nc1ccc(C(=O)CSc2nnc(Cc3ccccc3)o2)cc1` . Reported protection (pct of control): 5.61

Record `CCOc1ccc(Nc2nc(Cc3nnc(SCC(=O)c4ccc(C)cc4)o3)cs2)cc1` . Reported protection (pct of control): 31.3

Record `COc1ccc([N+](=O)[O-])cc1NC(=O)CCc1ccccc1` . Reported protection (pct of control): 101
